This collection of values is drawn from patent US20210395210A1.

assay: Kidney cell viability assay (Alamar Blue); conditions: human, HEK 293 kidney cells
endpoint-name: CC50 at 48 h (µM)

1. Cc1cc(C(C#N)c2ccc(Cl)cc2)c(Cl)cc1NC(=O)c1cc(I)cc(I)c1O (centres unmarked) [Closantel, closantel, reference compound] | 75.9

---

molecular target: human HSP60/10 (Homo sapiens); construct: octa-Histidine tag (TEV-cleavable) (N, cleaved yes); made in house; host or cells: HSP60 in E. coli Rosetta 2 (DE3); HSP10 in Rosetta 2 (DE3) pLysS; experiment: HSP60/10-mediated dMDH refolding assay; format: biochemical; conditions: human HSP60/10-dMDH refolding assay; read-out: HSP60/10-dMDH Refolding IC50
Sequence (P10809 27-573): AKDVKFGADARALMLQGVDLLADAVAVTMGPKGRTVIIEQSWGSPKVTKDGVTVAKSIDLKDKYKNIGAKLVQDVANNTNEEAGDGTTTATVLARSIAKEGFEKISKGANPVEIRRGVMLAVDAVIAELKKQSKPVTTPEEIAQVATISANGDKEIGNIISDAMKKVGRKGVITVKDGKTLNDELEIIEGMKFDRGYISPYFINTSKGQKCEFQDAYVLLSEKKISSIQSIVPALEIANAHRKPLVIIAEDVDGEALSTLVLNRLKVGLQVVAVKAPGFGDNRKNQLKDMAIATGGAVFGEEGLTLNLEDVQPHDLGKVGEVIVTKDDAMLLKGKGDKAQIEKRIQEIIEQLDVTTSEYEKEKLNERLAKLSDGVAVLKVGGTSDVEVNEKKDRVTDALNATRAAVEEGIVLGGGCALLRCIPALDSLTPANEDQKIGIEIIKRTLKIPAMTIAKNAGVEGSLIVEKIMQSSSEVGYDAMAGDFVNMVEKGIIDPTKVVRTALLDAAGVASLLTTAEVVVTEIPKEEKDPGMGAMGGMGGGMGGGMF
endpoint-name: IC50 (µM)

1) O=C(Nc1ccc(Sc2nc3ccccc3s2)c(Cl)c1)c1cc(Br)cc(Br)c1O [Compound 1] | 4.2
2) O=C(Nc1ccc(Sc2nc3ccccc3s2)cc1)c1cc(Br)cc(Br)c1O [Compound 5] | 4.7
3) O=C(Nc1ccc(Sc2nc3ccccc3s2)c(Cl)c1)c1cccc(Br)c1O [Compound 2] | 6.9

---

Each entry below carries its reported EC50.
tested on: Enterobacter cloacae (ATCC 13047); assay: Bacterial proliferation assay, E. cloacae; type: cell-based; conditions: ATCC13047, OD600 at 6-8 h, read-out: Bacterial Proliferation EC50 E. cloacae
endpoint-name: EC50

1) CC1(C)S[C@@H]2[C@H](NC(=O)[C@H](N)c3ccccc3)C(=O)N2[C@H]1C(=O)O [Ampicillin, ampicillin, reference compound] | > 100 µM
2) O=C(Nc1ccccc1)c1cc(Br)ccc1O [Compound 15, 5-Bromo-2-hydroxy-N-phenylbenzamide] | > 100 µM
3) O=C(Nc1ccc(Sc2nc3ccccc3s2)c(Cl)c1)c1ccccc1O | > 100 µM

---

Target: native Rho (rhodanese) (Bos taurus, UniProt P00586)
Construct: purchased Roche (so in the source) R1756
Sequence (P00586 1-297): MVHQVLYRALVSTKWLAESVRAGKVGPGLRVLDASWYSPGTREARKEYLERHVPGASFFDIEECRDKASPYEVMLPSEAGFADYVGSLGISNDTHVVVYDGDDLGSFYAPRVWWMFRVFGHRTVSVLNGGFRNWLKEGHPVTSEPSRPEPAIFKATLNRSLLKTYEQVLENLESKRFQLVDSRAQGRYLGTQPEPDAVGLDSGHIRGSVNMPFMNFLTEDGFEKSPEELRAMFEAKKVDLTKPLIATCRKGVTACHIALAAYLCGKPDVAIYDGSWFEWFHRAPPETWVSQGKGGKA
Assay: Counter-screen for inhibition of native rhodanese enzymatic activity
Type: biochemical
Conditions: read-out: Biochemical Assay IC50 Native Rho Reporter
endpoint-name: IC50

1) O=C(Nc1ccc(Sc2nc3ccccc3s2)cc1)c1ccccc1 | > 100 µM
2) O=C(Nc1ccc(Sc2nc3ccccc3s2)cc1)c1cc(Br)cc(Br)c1 | > 100 µM
3) COc1ccc(Br)cc1C(=O)Nc1ccc(Sc2nc3ccccc3s2)cc1 | > 100 µM
4) O=C(Nc1ccc(Sc2nc3ccccc3s2)cc1)c1ccccc1O | > 100 µM
5) O=C(Nc1cccc(Cl)c1)c1cc(Br)cc(Br)c1 [Compound 23, 3,5-Dibromo-N-(3-chlorophenyl)benzamide] | > 100 µM
6) O=C(Nc1ccc(Sc2nc3ccccc3s2)c(Cl)c1)c1cccc(Br)c1 | > 100 µM
7) CC1(C)S[C@@H]2[C@H](NC(=O)[C@H](N)c3ccccc3)C(=O)N2[C@H]1C(=O)O [Ampicillin, ampicillin, reference compound] | > 100 µM
8) COc1ccccc1C(=O)Nc1cccc(Cl)c1 [Compound 40, N-(3-Chlorophenyl)-2-methoxybenzamide] | > 100 µM
9) O=C(Nc1ccc(Sc2nc3ccccc3s2)c(Cl)c1)c1cc(Br)ccc1O | > 100 µM
10) Cc1cc(C(C#N)c2ccc(Cl)cc2)c(Cl)cc1NC(=O)c1cc(I)cc(I)c1O (stereo not drawn) [Closantel, closantel, reference compound] | > 100 µM
11) COc1c(Br)cc(Br)cc1C(=O)Nc1cccc(Cl)c1 | > 100 µM
12) COc1ccc(Br)cc1C(=O)Nc1cccc(Cl)c1 | > 100 µM
13) COc1ccccc1C(=O)Nc1ccccc1 [Compound 44, 2-Methoxy-N-phenylbenzamide] | > 100 µM
14) O=C(Nc1ccc(Sc2nc3ccccc3s2)cc1)c1cc(Br)ccc1O | > 100 µM
15) O=C(Nc1cccc(Cl)c1)c1ccccc1O [Compound 12, N-(3-Chlorophenyl)-2-hydroxybenzamide] | > 100 µM
16) O=C(Nc1ccccc1)c1cc(Br)ccc1O [Compound 15, 5-Bromo-2-hydroxy-N-phenylbenzamide] | > 100 µM
17) COc1c(Br)cc(Br)cc1C(=O)Nc1ccc(Sc2nc3ccccc3s2)cc1 | > 100 µM
18) COc1c(Br)cc(Br)cc1C(=O)Nc1ccccc1 [Compound 41, 3,5-Dibromo-2-methoxy-N-phenylbenzamide] | > 100 µM
19) O=C(Nc1cccc(Cl)c1)c1cc(Br)ccc1O | > 100 µM
20) O=C(Nc1ccccc1)c1cccc(Br)c1O [Compound 14, 3-Bromo-2-hydroxy-N-phenylbenzamide] | > 100 µM
21) COc1ccc(Br)cc1C(=O)Nc1ccc(Sc2nc3ccccc3s2)c(Cl)c1 | > 100 µM
22) O=C(Nc1ccccc1)c1cc(Br)cc(Br)c1 [Compound 26, 3,5-Dibromo-N-phenylbenzamide] | > 100 µM
23) COc1ccc(Br)cc1C(=O)Nc1ccccc1 [Compound 43, 5-Bromo-2-methoxy-N-phenylbenzamide] | > 100 µM
24) O=C(Nc1cccc(Cl)c1)c1ccccc1 [Compound 25, N-(3-Chlorophenyl)benzamide] | > 100 µM
25) COc1ccccc1C(=O)Nc1ccc(Sc2nc3ccccc3s2)cc1 | > 100 µM
26) COc1c(Br)cc(Br)cc1C(=O)Nc1ccc(Sc2nc3ccccc3s2)c(Cl)c1 | > 100 µM
27) O=C(Nc1cccc(Cl)c1)c1cc(Br)cc(Br)c1O | > 100 µM
28) O=C(Nc1ccc(Sc2nc3ccccc3s2)cc1)c1cccc(Br)c1 | > 100 µM
29) O=C(Nc1cccc(Cl)c1)c1cccc(Br)c1 [Compound 24, 3-Bromo-N-(3-chlorophenyl)benzamide] | > 100 µM
30) O=C(Nc1ccccc1)c1cc(Br)cc(Br)c1O [Compound 13, 3,5-Dibromo-2-hydroxy-N-phenylbenzamide] | > 100 µM
31) COc1c(Br)cccc1C(=O)Nc1ccccc1 [Compound 42, 3-Bromo-2-methoxy-N-phenylbenzamide] | > 100 µM
32) O=C(Nc1ccc(Sc2nc3ccccc3s2)c(Cl)c1)c1ccccc1O | > 100 µM
33) O=C(Nc1ccc(Sc2nc3ccccc3s2)c(Cl)c1)c1ccccc1 | > 100 µM

---

system: Pseudomonas aeruginosa (ATCC 10145); assay: Bacterial proliferation assay, P. aeruginosa; type: cell-based; settings: ATCC10145, read-out: log(EC50) Bacterial Proliferation Assay P. aeruginosa (converted)
endpoint-name: EC50

1) O=C(Nc1cccc(Cl)c1)c1cc(Br)cc(Br)c1O | > 100 µM
2) O=C(Nc1cccc(Cl)c1)c1cc(Br)ccc1O | > 100 µM
3) O=C(Nc1ccc(Sc2nc3ccccc3s2)cc1)c1cc(Br)ccc1O | > 100 µM
4) O=C(Nc1ccccc1)c1ccccc1O [Compound 16, 2-Hydroxy-N-phenylbenzamide] | > 100 µM
5) O=C(Nc1ccccc1)c1cc(Br)cc(Br)c1O [Compound 13, 3,5-Dibromo-2-hydroxy-N-phenylbenzamide] | > 100 µM
6) O=C(Nc1ccc(Sc2nc3ccccc3s2)cc1)c1cccc(Br)c1O | > 100 µM
7) O=C(Nc1ccc(Oc2ccc(Cl)cc2)c(Cl)c1)c1cc(I)cc(I)c1O [Rafoxanide, rafoxanide, reference compound] | > 100 µM
8) O=C(Nc1ccc(Sc2nc3ccccc3s2)c(Cl)c1)c1cc(Br)ccc1O | > 100 µM

---

target: human HSP60/10 (Homo sapiens); construct: octa-Histidine tag (TEV-cleavable) (N, cleaved yes); made in house; host or cells: HSP60 in E. coli Rosetta 2 (DE3); HSP10 in Rosetta 2 (DE3) pLysS; test: HSP60/10-mediated dMDH refolding assay; format: biochemical; conditions: log(IC50) ± standard deviation; human HSP60/10-dMDH refolding assay; read-out: HSP60/10-dMDH Refolding Assay log(IC50) (converted)
endpoint-name: IC50

1. O=C(Nc1cccc(Cl)c1)c1cc(Br)cc(Br)c1 [Compound 23, 3,5-Dibromo-N-(3-chlorophenyl)benzamide] | > 100 µM
2. O=C(Nc1ccc(Sc2nc3ccccc3s2)c(Cl)c1)c1cc(Br)cc(Br)c1O | 4.17 µM
3. O=C(Nc1ccccc1)c1cccc(Br)c1O [Compound 14, 3-Bromo-2-hydroxy-N-phenylbenzamide] | > 100 µM
4. COc1ccccc1C(=O)Nc1ccc(Sc2nc3ccccc3s2)c(Cl)c1 | > 100 µM
5. COc1c(Br)cccc1C(=O)Nc1ccc(Sc2nc3ccccc3s2)c(Cl)c1 | > 100 µM
6. O=C(Nc1ccccc1)c1cc(Br)ccc1O [Compound 15, 5-Bromo-2-hydroxy-N-phenylbenzamide] | > 100 µM
7. O=C(Nc1ccc(Sc2nc3ccccc3s2)c(Cl)c1)c1cccc(Br)c1O | 6.92 µM
8. COc1ccc(Br)cc1C(=O)Nc1cccc(Cl)c1 | > 100 µM
